- assayed target: T1, MHC class I molecule A*0201 (biotin (bound to streptavidin-coated plate))
- T1 construct: iTopia monomer stripped of placeholder peptide and b2M, then reconstituted with test peptide and fresh b2M; also called A2; HLA-A2
- experiment: iTopia peptide binding assay
experimental readout: binding, % of positive control peptide

1. GKDRLTCAY [5T4 9-mer peptide 159 (GKDRLTCAY)]
6 % of positive control
2. AELQGLPHI [5T4 9-mer peptide 140 (AELQGLPHI)]
9 % of positive control
3. NGTLAELQG [5T4 9-mer peptide 138 (NGTLAELQG)]
9 % of positive control
4. PHIRVFLDN [5T4 9-mer peptide 143 (PHIRVFLDN)]
2 % of positive control
5. DNALKVLHN [5T4 9-mer peptide 134 (DNALKVLHN)]
5 % of positive control
6. EGYHYRYEI [5T4 9-mer peptide 199 (EGYHYRYEI)]
9 % of positive control
7. YHYRYEINA [5T4 9-mer peptide 200 (YHYRYEINA)]
7 % of positive control
8. YRYEINADP [5T4 9-mer peptide 201 (YRYEINADP)]
0 % of positive control
